measurement.target: H1 histaminergic receptors (Homo sapiens)
Construct: expressed in transfected cells; host or cells: HEK-293 cells
Sequence (P35367 whole entry): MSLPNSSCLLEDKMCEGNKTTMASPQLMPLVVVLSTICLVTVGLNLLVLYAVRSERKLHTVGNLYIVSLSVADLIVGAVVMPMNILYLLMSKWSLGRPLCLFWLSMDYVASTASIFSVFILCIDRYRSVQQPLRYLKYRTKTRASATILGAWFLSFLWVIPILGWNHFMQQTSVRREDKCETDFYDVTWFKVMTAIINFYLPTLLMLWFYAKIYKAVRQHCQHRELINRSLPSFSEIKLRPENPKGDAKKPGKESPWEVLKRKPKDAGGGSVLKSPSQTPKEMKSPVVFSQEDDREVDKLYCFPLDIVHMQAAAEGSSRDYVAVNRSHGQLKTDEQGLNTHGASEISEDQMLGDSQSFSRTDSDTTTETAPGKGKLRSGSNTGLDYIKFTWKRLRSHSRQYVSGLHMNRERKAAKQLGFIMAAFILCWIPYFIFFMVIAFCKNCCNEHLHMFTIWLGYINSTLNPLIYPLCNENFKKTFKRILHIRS
method.summary: Radioligand binding assay, histaminergic H1 receptors
measurement.setup: human recombinant (HEK-293 cells), [3H]pyrilamine 1 nM
Threshold 6%. H1 [%] below it: 1. H1 [%] at it or above: 0.

compound: O=S(=O)(NC1CCN(CCOc2cccc3ccccc23)C1)c1cccc(O)c1 (stereo not shown)
classification: 0
//
compound: Cc1cccc(S(=O)(=O)NC2CN(CCOc3cccc4c3OCCO4)C2)c1
classification: 0
//
compound: CC1(C)Cc2cccc(OCCN3CCC(NS(=O)(=O)c4ccc5ccccc5c4)CC3)c2O1
classification: 0

Hello, is H1 [%] of the following compound strictly smaller than 6%? O=S(=O)(NC1CCN(CCOc2cccc3[nH]ccc23)CC1)c1ccccc1
1

Hello, is H1 [%] of the following compound strictly smaller than 6%? O=S(=O)(NC1CN(CCOc2cccc3c2OCCO3)C1)c1cccc(F)c1
1

Hello, is H1 [%] of the following compound strictly smaller than 6%? CC1(C)Cc2cccc(OCCN3CCC(NS(=O)(=O)c4cccc(O)c4)CC3)c2O1
0

###

measurement.target: H1 histaminergic receptors (Homo sapiens)
Construct: expressed in transfected cells; host or cells: HEK-293 cells
method.summary: Radioligand binding assay, histaminergic H1 receptors
measurement.setup: human recombinant (HEK-293 cells), [3H]pyrilamine 1 nM
Description: The specific ligand binding to the receptors is defined as the difference between the total binding and the non-specific binding determined in the presence of the excess of unlabelled ligand. The results are expressed as a percent of control specific binding ((measured specific binding/control specific binding)×100) and as a percent inhibition of control specific binding (100−((measured specific binding/control specific binding)×100)) obtained in the presence of the test compounds. […]
We begin with a simple list: items and their reported inhibition at 1 µM.
Give the value, in units of %, as a plain number.

// fetch H1 histaminergic receptors (Homo sapiens) inhibition at 1 µM for Cc1cc(S(=O)(=O)N[C@@H]2CCN(CCCc3noc4cc(F)ccc34)C2)c(C)s1
79

// fetch H1 histaminergic receptors (Homo sapiens) inhibition at 1 µM for O=S(=O)(NC1CCN(CCCc2noc3cc(F)ccc23)C1)c1ccc(Cl)c(F)c1 (centres unmarked)
37

// fetch H1 histaminergic receptors (Homo sapiens) inhibition at 1 µM for CC(C)(C)c1ccc(S(=O)(=O)NCC2CN(CCOc3cccc4c3OCCO4)C2)cc1
27

// fetch H1 histaminergic receptors (Homo sapiens) inhibition at 1 µM for O=S(=O)(NCC1CN(CCCc2noc3cc(F)ccc23)C1)c1ccc2scnc2c1
33

// fetch H1 histaminergic receptors (Homo sapiens) inhibition at 1 µM for O=S(=O)(NCC1CCN(CCCc2noc3cc(F)ccc23)C1)c1ccc2cc(Cl)ccc2c1 (centres unmarked)
66

// fetch H1 histaminergic receptors (Homo sapiens) inhibition at 1 µM for O=S(=O)(NC1CCN(CCCc2noc3cc(F)ccc23)C1)c1csc2ccccc12 (centres unmarked)
44

// fetch H1 histaminergic receptors (Homo sapiens) inhibition at 1 µM for Cc1c(S(=O)(=O)NCC2CN(CCCc3noc4cc(F)ccc34)C2)sc2ccc(Cl)cc12
51

// fetch H1 histaminergic receptors (Homo sapiens) inhibition at 1 µM for O=S(=O)(NC1CCN(CCCc2noc3cc(F)ccc23)CC1)c1cccc2ccccc12
56

// fetch H1 histaminergic receptors (Homo sapiens) inhibition at 1 µM for O=S(=O)(NCC1CCN(CCOc2cccc3c2OCCO3)C1)c1ccc(Br)cc1 (centres unmarked)
54

// fetch H1 histaminergic receptors (Homo sapiens) inhibition at 1 µM for O=S(=O)(NC1CCN(CCCc2noc3cc(F)ccc23)C1)c1ccc2cc(Cl)ccc2c1 (centres unmarked)
60

// fetch H1 histaminergic receptors (Homo sapiens) inhibition at 1 µM for COc1ccc2cc(S(=O)(=O)N[C@H]3CCN(CCCc4noc5cc(F)ccc45)C3)ccc2c1
54

// fetch H1 histaminergic receptors (Homo sapiens) inhibition at 1 µM for O=S(=O)(N[C@H]1CCN(CCCc2noc3cc(F)ccc23)C1)c1cc2ccc(Cl)cc2s1
58

Origin of the recorded values: patent US20140135310A1
